Molecular target: Serine/threonine-protein kinase/endoribonuclease IRE1 (Homo sapiens, UniProt O75460)
Sequence (O75460 whole entry, the tested form may be a part): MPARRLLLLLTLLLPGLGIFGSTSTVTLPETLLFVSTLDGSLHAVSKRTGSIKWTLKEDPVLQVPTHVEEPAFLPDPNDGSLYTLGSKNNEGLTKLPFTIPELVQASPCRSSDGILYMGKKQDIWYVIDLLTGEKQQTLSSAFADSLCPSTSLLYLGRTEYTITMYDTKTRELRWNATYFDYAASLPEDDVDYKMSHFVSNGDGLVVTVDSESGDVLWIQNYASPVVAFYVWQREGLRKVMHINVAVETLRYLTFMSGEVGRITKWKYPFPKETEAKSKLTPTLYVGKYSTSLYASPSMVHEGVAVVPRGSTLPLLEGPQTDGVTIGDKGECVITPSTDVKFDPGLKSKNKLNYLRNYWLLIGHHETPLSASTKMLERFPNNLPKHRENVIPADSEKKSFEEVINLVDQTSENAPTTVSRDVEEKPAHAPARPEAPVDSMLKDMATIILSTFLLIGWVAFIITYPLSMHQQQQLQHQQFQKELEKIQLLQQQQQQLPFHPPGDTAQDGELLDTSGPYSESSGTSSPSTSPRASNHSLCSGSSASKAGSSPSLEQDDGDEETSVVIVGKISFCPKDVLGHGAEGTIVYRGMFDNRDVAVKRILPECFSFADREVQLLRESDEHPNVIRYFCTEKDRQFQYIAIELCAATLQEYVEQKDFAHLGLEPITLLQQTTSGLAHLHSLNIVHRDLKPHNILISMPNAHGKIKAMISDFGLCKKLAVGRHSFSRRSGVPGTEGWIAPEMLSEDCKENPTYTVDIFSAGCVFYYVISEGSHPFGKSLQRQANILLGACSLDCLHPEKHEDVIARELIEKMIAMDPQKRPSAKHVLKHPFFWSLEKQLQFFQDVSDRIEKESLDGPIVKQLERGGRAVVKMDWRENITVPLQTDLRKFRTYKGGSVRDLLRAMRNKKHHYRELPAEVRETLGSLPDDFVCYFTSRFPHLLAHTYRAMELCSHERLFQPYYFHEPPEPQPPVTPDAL
Assay: Inhibition Assay: A fusion protein comprising glutathione S transferase (GST) and human IRE-1alpha (GST-IRE-1alpha) obtained from a 500 ml baculovirus-infected insect cell culture can be used to measure IRE-1alpha activity in vitro. Five ul of a reaction mixture comprising IX reaction buffer (5x reaction buffer is 100 mM Hepes pH 7.5, 250 mM KOAc, 2.5 mM MgCl2), 3 mM DTT, and 0.4% polyethylene glycol water is added to each well of 384 well plates. Twenty-five nanoliters of a 1 mM test compound solution are added to test wells. Three ul of a 128 ng/ml IRE-1alpha preparation are added to each test well and to positive control wells (final concentration 5.82 ng/well). Negative control wells contain only reaction mixture and test compound.After spinning the plates at 1200 rpm for 30 seconds, 3 ul of an IRE-1alpha human mini-XBP-1 mRNA stem-loop substrate 5'-[…]-3' (SEQ ID NO:1), labeled with the fluorescent dye Cy5 at the 5' end and Black Hole Quencher 2.
Known IC50 of a selection of molecules

Sample answers from the record:
Molecule | Study Target | Measured Parameter | Result
CN1CCN(C(=O)c2ccc(-c3nc4ccc(O)c(C=O)c4[nH]3)cc2)CC1 | Serine/threonine-protein kinase/endoribonuclease IRE1 (Homo sapiens, UniProt O75460) | IC50 | < 100 nM
O=Cc1c(O)ccc2nc(-c3ccc(C(=O)N4CCOCC4)cc3)[nH]c12 | Serine/threonine-protein kinase/endoribonuclease IRE1 (Homo sapiens, UniProt O75460) | IC50 | < 100 nM

For the molecule `Cc1c(Br)c(=O)oc2c(C=O)c(O)c(F)cc12` , what IC50 is on record?
< 1000 nM

For the molecule `O=Cc1c(O)ccc2nc(-c3ccc(C(=O)O)cc3)[nH]c12` , what IC50 is on record?
< 1000 nM

For the molecule `O=Cc1c(O)ccc2nc(-c3cccc(C(=O)N4CCOCC4)c3)ccc12` , what IC50 is on record?
< 1000 nM

For the molecule `Cc1c(CCC(=O)N2CCOCC2)c(=O)oc2c(C=O)c(O)ccc12` , what IC50 is on record?
< 100 nM
